# experimental_target: T1, human MSLN-R3-3 polypeptide (human)
# T1 construct: also called human MSLN-R3-3 protein; hMSLN-R3-3
# experimental_details: ELISA on coated antigen, antibody 0.0001 nM

{"columns": ["binder", "uom", "OD450"],
 "data": [
  ["S009-F2.38.12 (antibody, human IgG1, kappa, V domains shown, Human-murine chimeric antibody: murine VH/VL on human IgG1 heavy and kappa light constant regions) VH: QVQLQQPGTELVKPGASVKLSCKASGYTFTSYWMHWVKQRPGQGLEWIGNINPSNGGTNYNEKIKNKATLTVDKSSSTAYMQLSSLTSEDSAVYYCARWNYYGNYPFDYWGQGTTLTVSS VL: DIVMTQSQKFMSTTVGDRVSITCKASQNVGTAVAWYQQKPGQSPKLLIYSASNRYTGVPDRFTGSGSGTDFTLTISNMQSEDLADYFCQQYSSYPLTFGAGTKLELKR", "OD450", 0.05],
  ["S009-F2.16.10 (antibody, human IgG1, kappa, V domains shown, Human-murine chimeric antibody: murine VH/VL on human IgG1 heavy and kappa light constant regions) VH: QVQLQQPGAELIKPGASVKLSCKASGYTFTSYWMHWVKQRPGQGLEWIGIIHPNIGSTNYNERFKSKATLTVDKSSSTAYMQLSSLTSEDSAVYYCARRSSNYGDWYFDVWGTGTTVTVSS VL: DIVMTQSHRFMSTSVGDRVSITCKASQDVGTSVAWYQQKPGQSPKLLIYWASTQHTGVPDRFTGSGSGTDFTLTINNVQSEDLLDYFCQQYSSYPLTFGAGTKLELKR", "OD450", 0.05]
]}
